Entries and their AUC(0-t) values follow.
Test: Plasma PK of major maoto compounds by LC-MS/MS after oral administration of maoto
Assay type: in vivo, rat
Details: Sprague-Dawley, rat, plasma, po, 4 g/kg

compound	AUC(0-t), ng·h/mL
O=C(O)/C=C/c1ccccc1 [Cinnamic acid]	5750
CN[C@@H](C)[C@@H](O)c1ccccc1 [d-Pseudoephedrine, d-pseudoephedrine]	1180
N#C[C@H](O[C@@H]1O[C@H](CO)[C@@H](O)[C@H](O)[C@H]1O)c1ccccc1 [Prunasin]	32000
Oc1cc(O)c2c(c1)O[C@H](c1ccc(O)c(O)c1)[C@H](O)C2 [Epicatechin]	6.92
COc1cc2ccc(=O)oc2cc1O [Scopoletin]	0.591

====

Assay: Common metabolites in rat plasma by GC-MS/MS after polyI:C and/or maoto
Assay type: in vivo
Settings: M/C (maoto vs control), 6h

molecule	log2FC of plasma level
O=C[C@H](O)[C@H](O)[C@H](O)CO	-0.22
NCC(=O)O	-0.14
O=C(O)Cc1cc(O)ccc1O	0.23
NC(N)=O	-0.09
O=C(CO)C(O)C(O)CO (centres unmarked)	0.06

====

Format: in vivo, rat
Details: PM/P (polyI:C+maoto vs polyI:C), 2h
If the reported log2FC of plasma level equals or exceeds 0.03, assign fulfilled. If not, assign not fulfilled.

compound	groupLabel
CCCCC/C=C\C=C\[C@H](CCCCCCCC(=O)O)OO [9-HpODE]	not fulfilled
CCCCC/C=C\C/C=C\C/C=C\C=C\[C@@H](O)CCCC(=O)O [5-HETE]	not fulfilled
CCCCC[C@H](O)/C=C/[C@H]1[C@H](O)CC(=O)[C@@H]1C/C=C\CCCC(=O)O [PGE2]	not fulfilled
CCCCCC(=O)CCC1C(O)CC(O)C1CCC(=O)O (stereo not drawn) [13,14-dihydro-15-keto-tetranor-PGF1β]	fulfilled
O=C(O)CCC/C=C\C/C=C\C/C=C\C/C=C\CCCCCO [20-HETE]	fulfilled
CCCCCC(O)C(O)C/C=C\C/C=C\C/C=C\CCCC(=O)O (centres unmarked) [14,15-DHET]	fulfilled
CCCCC(O)/C=C\C/C=C\C/C=C\C/C=C\CCCC(=O)O (centres unmarked) [16-HETE]	not fulfilled
CCCCCC=CCC=CCC=CC=CC(=O)CCCC(=O)O [5-KETE]	not fulfilled
CCCCC/C=C/C=C/C(=O)CCCCCCCC(=O)O [9-KODE]	not fulfilled
CCCCCC(O)/C=C/C=C\CCCCCCCCCC(=O)O (centres unmarked) [15-HEDE]	fulfilled
CCCCC[C@H](O)/C=C/[C@H]1OC(O)C[C@H](O)[C@@H]1C/C=C\CCCC(=O)O (some centres unmarked) [TXB2]	fulfilled
CC/C=C\C/C=C\C=C\C(O)CCCCCCCC(=O)O (centres unmarked) [9-HOTrE]	not fulfilled
CCCCC/C=C\C[C@H](O)/C=C/C=C\C/C=C\CCCC(=O)O [12-HETE]	fulfilled
CCCCC[C@@H](/C=C/C=C\CCCCCCCC(=O)O)OO [13-HpODE]	not fulfilled
CCCCCC(O)/C=C/C=C/C/C=C/CCCC(=O)O (centres unmarked) [12-HHT]	not fulfilled
CCCCCC(=O)CCC1C(O)CC(=O)C1CCC(=O)O (centres unmarked) [13,14-dihydro-15-keto-tetranor-PGE2]	not fulfilled
CC/C=C\C/C=C\CC(O)/C=C/C=C\C/C=C\CCCC(=O)O (centres unmarked) [12-HEPE]	fulfilled
CC/C=C\CC(O)/C=C/C=C\C/C=C\C/C=C\CCCC(=O)O (centres unmarked) [15-HEPE]	not fulfilled
CCCCC/C=C\C/C=C\C/C=C\CC(O)C(O)CCCC(=O)O (centres unmarked) [5,6-DHET]	fulfilled
CC/C=C\C/C=C\C/C=C\C/C=C\C/C=C\C/C=C\CCC(=O)O [DHA, docosahexaenoic acid]	fulfilled
CCCCC/C=C\C/C=C\CC(O)C(O)C/C=C\CCCC(=O)O (centres unmarked) [8,9-DHET]	fulfilled
CCCCCC(=O)CC[C@H]1[C@H](O)CC(=O)[C@@H]1C/C=C\CCCC(=O)O [13,14-dihydro-15-keto-PGE2]	not fulfilled
CCCCC/C=C\CC(O)C(O)C/C=C\C/C=C\CCCC(=O)O (centres unmarked) [11,12-DHET]	fulfilled
CCCCC/C=C\C/C=C\C/C=C\CC1OC1CCCC(=O)O (centres unmarked) [5,6-EET]	fulfilled
CCCCC/C=C\CC(=O)/C=C/C=C\C/C=C\CCCC(=O)O [12-KETE]	fulfilled
O=C(O)CCC/C=C\C/C=C\C/C=C\C/C=C\CCCCC(=O)O [20-carboxy-AA]	fulfilled
CCCCC/C=C\C/C=C\CC1OC1C/C=C\CCCC(=O)O (centres unmarked) [8,9-EET]	fulfilled
CC/C=C\C/C=C\C/C=C\C/C=C\C=C\C(O)CCCC(=O)O (centres unmarked) [5-HEPE]	fulfilled
CCCCC/C=C\C[C@@H]1[C@H](/C=C/C(O)CCCC(=O)O)[C@@H](O)C[C@H]1O (stereo partly drawn) [5-iPF2α-VI]	fulfilled
CCCCC[C@H](O)/C=C/C=C\C/C=C\C/C=C\CCCC(=O)O [15-HETE]	not fulfilled
CC/C=C\C/C=C\C/C=C\C/C=C\CC(O)/C=C/C=C\CCC(=O)O (centres unmarked) [8-HDoHE]	not fulfilled
CC/C=C\C=C\C(O)C/C=C\C/C=C\C/C=C\C/C=C\CCC(=O)O (centres unmarked) [16-HDoHE]	fulfilled
CC/C=C\CC(O)/C=C/C=C\CCCCCCCC(=O)O (centres unmarked) [13-HOTrE]	not fulfilled
CCC(O)/C=C/C=C\C/C=C\C/C=C\C/C=C\CCCC(=O)O (centres unmarked) [18-HEPE]	not fulfilled
CCCCC/C=C\C/C=C\C=C\C(O)C/C=C\CCCC(=O)O (centres unmarked) [8-HETE]	fulfilled
CCCCCC(O)/C=C/C=C\C/C=C\CCCCCCC(=O)O (centres unmarked) [15-HETrE]	fulfilled

Source of measurements: paper PMC5654968
